SETUP CONDITIONS: in methanol, 308.15 K
RECORDED ENDPOINT: solubility (mole fraction)

STRUCTURE AS SMILES: CC(=O)c1cccc([N+](=O)[O-])c1
solubility (mole fraction): 0.0231

STRUCTURE AS SMILES: CC(=O)c1ccc([N+](=O)[O-])cc1
solubility (mole fraction): 0.0283

###

SETUP CONDITIONS: in n-propanol, 293.15 K
RECORDED ENDPOINT: solubility (mole fraction)

STRUCTURE AS SMILES: CC(=O)c1cccc([N+](=O)[O-])c1
solubility (mole fraction): 0.00763
//
STRUCTURE AS SMILES: CC(=O)c1ccc([N+](=O)[O-])cc1
solubility (mole fraction): 0.00968
